- Test system: U251 CNS
- protocol.summary: NCI-60 one-dose screen, 48 h (100 = growth as untreated, 0 = no growth, -100 = all killed)
- measurement.conditions: 10 µM unless noted
- Description: Growth inhibition of the U251 human tumor cell line is measured as a screen for anti-cancer activity. Cells are grown in 96 well plates and exposed to the test compound for 48 hours. Compounds are tested at a single concentration, which is 10^-5 M for most compounds. The reported endpoint is percent growth (GI% or GIPRCNT), where numbers from 0 - 100% represent growth inhibition, and numbers from -100% - 0 represent cell death. For example, a value of 40 represents 60% growth inhibition. […]
The panel holds about 83,000 compounds, 20% with a hit somewhere; the sample as a whole holds those more often.
Entry class follows growth: low (below 10%), moderate (10% to below 90%), high (90% or more)

Illustrative cases are given below, each with its answer.
O=C(NNc1nc2cc(F)ccc2n2cccc12)c1ccncn1 ... moderate
C=C(C)[C@@H]1CC[C@]2(COP(=O)(OCC)OCC)CC[C@]3(C)[C@H](CC[C@@H]4[C@@]5(C)CCCNC(C)(C)[C@@H]5CC[C@]43C)[C@@H]12 ... moderate
COc1ccc(/C=C/C(=O)c2cc(S(N)(=O)=O)c(OC)cc2OC)cc1 ... moderate
C#CC(=O)N(c1ccc(OC)cc1OC)C(C(=O)NCC(=O)OCC)c1cccs1 (stereo not drawn) ... low
Cc1ccc(-c2cc3nc(C(Cl)Cl)nc(-c4ccco4)n3n2)cc1 ... low
O=C(CSc1nc2ccccc2c(=O)n1-c1ccccc1)Nc1cccc(C(=O)/C=C/c2ccccc2)c1 ... moderate
COC(=O)c1[nH]nc2c1C1(C(=O)c3cccc4cccc1c34)C(C#N)=C(N)O2 (stereo not drawn) ... high
O=C(O)c1ccc(-n2cc(CNc3cc(F)c(F)c(F)c3)c(-c3ccc(F)cc3)n2)cc1 ... high

Query: Sort COc1c(N2CC3CCCNC3C2)c(F)cc2c(=O)c(C(=O)N/N=C/c3ccc4c(c3)OCO4)cn(C3CC3)c12 (stereo not drawn) into one of the categories.
Reply: moderate

Query: Sort "Cn1ccnc1C(=O)/C=C/c1ccc(CNC(=O)c2ccc(S(F)(F)(F)(F)F)cc2)cc1" into one of the categories.
Reply: low

Query: Sort "CCn1c(SCC(=O)Nc2cccc(C(=O)/C=C/c3cc(OC)c(OC)c(OC)c3)c2)nc2ccccc2c1=O" into one of the categories.
Reply: moderate

Query: Sort "c1cc(-c2nc3ccc4[nH]ncc4c3c3c2CCCC3)[nH]n1" into one of the categories.
Reply: moderate

Query: Sort "CCc1nn2c(C)cc(C)nc2c1Cc1ccc(/C=C/CN2CCN(CCOCCOCCN3CCN(C/C=C/c4ccc(Cc5c(CC)nn6c(C)cc(C)nc56)cc4)CC3)CC2)cc1" into one of the categories.
Reply: low

Query: Sort "CNC(=O)c1c(NC(=O)c2ccccc2C(F)(F)F)sc2c1CCC(=O)C2" into one of the categories.
Reply: moderate

Query: Sort CC1=CC(=O)C2=C(C)CC(OC(=O)CCc3ccccc3)[C@@H]3[C@H](OC(=O)[C@@H]3C)[C@@H]12 (stereo partly drawn) into one of the categories.
Reply: high

----------
- System: NCI-H23 lung
- protocol.summary: NCI-60 one-dose screen, 48 h (100 = growth as untreated, 0 = no growth, -100 = all killed)
- measurement.conditions: 10 µM unless noted
Compounds without any hit were thinned out: in the full panel of roughly 83,000, 20% have a hit.
Reported growth values follow for various compounds
Kindly provide the numeric value in % only, without the unit symbol.

Would you please look over these solved cases?
NC(N)=Nc1ccc(Oc2cccc(Nc3cccc(C(F)(F)F)c3)c2)cn1 ... -2.6
NC(N)=Nc1ccc(Oc2cccc(NC(N)=Nc3ccc(I)cc3F)c2)cn1 ... 52.2
COc1cccc2c1CN(C(=O)c1ccc(O)c(C(=O)N3Cc4ccc(OCCC[P+](c5ccccc5)(c5ccccc5)c5ccccc5)cc4C3)c1)C2 ... 75.4
COc1ccc(-c2nc3cc(Cl)c(Cl)cc3n2CC(=O)N=Nc2c(O)[nH]c3ccc(OC)cc23)cc1 ... 38.7
Cc1ccc2c(c1)Oc1nc(N)c(C#N)c(N)c1C2Sc1ccc(F)cc1 (stereo not drawn) ... -88.2
CCC(CC)N1C(=O)/C(=c2\sc3n(c2=O)NC2C(N=3)N(CC)C(=O)N2CC)c2ccccc21 (stereo not drawn) ... 44.1
Cc1ccc(S(=O)(=O)N(CC[C@@H]2C[C@H]2c2cc3ccccc3o2)S(=O)(=O)c2ccc(C)cc2)cc1 ... 90.8

Kindly consider the entry below.
Query: What measured growth goes with "O=C1[C@H]2Cc3c([nH]c4ccccc34)[C@@H](c3c(Cl)cccc3Cl)N2C(=O)CN1C1CCN(CC2CCCCC2)CC1" ?
Reply: 94.5

----------
Reported growth values follow for various molecules
- System: SF-539 CNS
- protocol.summary: NCI-60 one-dose screen, 48 h (100 = growth as untreated, 0 = no growth, -100 = all killed)
- measurement.conditions: 10 µM unless noted
Compounds without any hit were thinned out: in the full panel of roughly 83,000, 20% have a hit.
Kindly provide the numeric value in % only, without the unit symbol.

Would you please look over these solved cases?
CCNC(=O)N1CCc2cc(OC)c(OCCc3ccc(OC)cc3)cc2C1c1ccc(OC)cc1C (stereo not drawn) ... 6.35
CN1CCN(c2nc(-c3csc(-c4ccccc4)n3)cc3ccccc23)CC1 ... 57.5
O=C(Nc1cccc(Cl)c1)Nc1nc2ccc([N+](=O)[O-])cc2o1 ... 11.4
N#Cc1cccc(CN2CCC3=C(C2)C(=O)N(Cc2ccc(Cl)cc2)C2=NCCCN23)c1 ... 40.5
Cc1ccc(-n2cc(/C=C/C(=O)c3ccc(O)cc3)c(-c3ccc(S(C)(=O)=O)cc3)n2)cc1 ... 60.2
O=C(Nc1ccc(F)c(F)c1)c1cc(-c2ccc(F)cc2F)ccc1O ... 12.5
C=CCn1c(SCC(=O)Nc2ccc(C(=O)/C=C/c3cccc([N+](=O)[O-])c3)cc2)nnc1-c1c[nH]c2ccccc12 ... 96.4
O=C(NCCn1ccnc1)c1ccc(-c2nc3ccc4[nH]ncc4c3c3c2CCCC3)cc1 ... 50.9

Query: Identify the measured growth of "O=C1/C(=C/C=C/c2ccco2)SC(=S)N1C1CCCCC1" for SF-539 CNS.
Reply: 94.8

Query: Identify the measured growth of "COc1ccc(S(=O)(=O)NCCCNc2nccc(-c3[nH]c(-c4ccccc4)nc3-c3ccc(Cl)c(O)c3)n2)cc1" for SF-539 CNS.
Reply: 101

Query: Identify the measured growth of CCNC(=O)N1CCc2cc(OC)c(OCCc3ccc(OC)cc3)cc2C1c1ccc(Cl)cc1C (stereo not drawn) for SF-539 CNS.
Reply: 5.79

Query: Identify the measured growth of Cc1cccc2c3c(sc12)C(c1ccc(F)cc1)C(C#N)=C(/N=C/c1ccc(Cl)cc1)O3 (stereo not drawn) for SF-539 CNS.
Reply: -13.1

Query: Identify the measured growth of "COc1ccc(/C=C(/C)c2ccc3ccc(OC)cc3[o+]2)c(O)c1" for SF-539 CNS.
Reply: 96.1

Query: Identify the measured growth of "O=C(NCCN1CCCC1)c1ccc(-c2nc3ccc4[nH]ncc4c3c3c2CCCC3)cc1" for SF-539 CNS.
Reply: -63.2

Query: Identify the measured growth of "C#Cc1ccc(C(=O)NCc2ccc(/C=C/C(=O)c3nccn3C)cc2)cc1" for SF-539 CNS.
Reply: -17

Query: Identify the measured growth of "O=c1[nH]c(Sc2sc3ccc(Cl)cc3c2CBr)nc(=S)[nH]1" for SF-539 CNS.
Reply: 32.1

Query: Identify the measured growth of "C[C@@H](Nc1c(C#N)cnc2ccc(-c3cnc(Cl)c(NS(C)(=O)=O)c3)cc12)c1ccccc1" for SF-539 CNS.
Reply: -20.7

----------
- System: MOLT-4 leukemia
- protocol.summary: NCI-60 one-dose screen, 48 h (100 = growth as untreated, 0 = no growth, -100 = all killed)
- measurement.conditions: 10 µM unless noted
- Procedure: Growth inhibition of the MOLT-4 human tumor cell line is measured as a screen for anti-cancer activity. Cells are grown in 96 well plates and exposed to the test compound for 48 hours. Compounds are tested at a single concentration, which is 10^-5 M for most compounds. The reported endpoint is percent growth (GI% or GIPRCNT), where numbers from 0 - 100% represent growth inhibition, and numbers from -100% - 0 represent cell death. For example, a value of 40 represents 60% growth inhibition. […]
This is part of a sample that, as a whole, favours compounds with a hit. Of some 83,000 tested, about 20% had one in any assay.
growth vs 20%: less than gives t; not less than gives f.

Illustrative cases are given below, each with its answer.
Nc1nc(Nc2ccccc2SSc2ccccc2Nc2nc(N)nc(-c3ccc4ccccc4c3)n2)nc(-c2ccc3ccccc3c2)n1 ... f
O=C1CCCc2nc(Nc3ccc(S(=O)(=O)Nc4ccc([N+](=O)[O-])cc4)cc3)ncc21 ... f
O=C(Nc1ccc(F)c(F)c1)c1cc(-c2ccc(F)cc2F)ccc1O ... t

Query: Regarding "C#C[C@]1(O)CC[C@H]2[C@@H]3CC=C4c5sc(-c6cccc(O)c6)nc5CC[C@]4(C)[C@H]3CC[C@@]21C" , kindly confirm whether its growth is beneath 20%.
Reply: t

Query: Regarding "COc1cccc2c1CN(C(=O)c1ccc(O)c(C(=O)N3Cc4ccc(OCCC[P+](c5ccccc5)(c5ccccc5)c5ccccc5)cc4C3)c1)C2" , kindly confirm whether its growth is beneath 20%.
Reply: f

Query: Regarding "N#Cc1cccc(CN2CCC3=C(C2)C(=O)N(Cc2ccc(Cl)cc2)C2=NCCN23)c1" , kindly confirm whether its growth is beneath 20%.
Reply: f

Query: Regarding CCNC(=O)N1CCc2cc(OC)c(OCCc3ccc(OC)cc3)cc2C1c1ccc(OC)cc1C (stereo not drawn) , kindly confirm whether its growth is beneath 20%.
Reply: f

Query: Regarding "O=S(=O)(Nc1ccc2c(c1)OCO2)c1ccc(-c2cnc(C3CC3)o2)cc1" , kindly confirm whether its growth is beneath 20%.
Reply: f

Query: Regarding COC(=O)C1(C)CCC[C@]2(C)[C@H]3C[C@H]4C(C(C)C)=C[C@]3(CC[C@@H]12)[C@H]1[C@@H]4[C@@H](OC(=O)c2ccco2)CC[C@@H]1OC(=O)c1ccco1 (stereo partly drawn) , kindly confirm whether its growth is beneath 20%.
Reply: f

Query: Regarding "O=C(Nc1ccc(Br)cc1)Nc1nc2ccc([N+](=O)[O-])cc2s1" , kindly confirm whether its growth is beneath 20%.
Reply: t

Query: Regarding COC(=O)c1[nH]nc2c1C1(C(=O)N(C)c3ccccc31)C(C#N)=C(N)O2 (stereo not drawn) , kindly confirm whether its growth is beneath 20%.
Reply: f

Query: Regarding "CCN(CC)CCn1c2ccc(O)cc2c2sc3cc(OC)ccc3c(=O)c21" , kindly confirm whether its growth is beneath 20%.
Reply: t

Query: Regarding "CCOC(=O)c1c(Nc2ccccc2)nn2c(-c3ccccc3)ccnc12" , kindly confirm whether its growth is beneath 20%.
Reply: f

Query: Regarding "O=C(O)c1ccc(-n2cc(CNc3cc(F)c(F)c(F)c3)c(-c3cccc(F)c3)n2)cc1" , kindly confirm whether its growth is beneath 20%.
Reply: f

Provenance of the data: PubChem BioAssay (NCI)
